Tested on: Escherichia coli
Experiment: microbe, parasite or virus in culture
Assay type: cell-based
Conditions: Escherichia coli ATCC 25922; CAA supplemented with human serum
Experimental: Determination of Minimal Inhibitory Concentrations (MIC). Additional MIC testing was performed for several peptides against the ESKAPE pathogens Escherichia coli, Enterobacter cloacae, Klebsiella pneumoniae, and Acinetobacter baumannii, in CAA supplemented with human serum (Table D).
measuredProperty: log10 MIC (log10 of the value in µg/mL)
Use the decimal logarithm of MIC (µg/mL).

Guide cases for log10 MIC, answers given:
In: // query log10 MIC value for entry MAGKKMVSKGKDRQIFRKTADRTKKMNVRPLLYRGGIRL [Chp12]
Out: 0.90

In: And for MAEQYELSQEQSEQLFSETALQMHEQNELQEIMQGGIEF [Chp5] ?
Out: 0.60

Others:
In: // query log10 MIC value for entry MSKKRSRMSRRRSKKLFSKTALRTKSVNTRPPMRGGFRF [Chp8]
Out: -0.30

In: And for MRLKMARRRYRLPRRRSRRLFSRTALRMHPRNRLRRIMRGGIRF [Chp2] ?
Out: 0.00
